B1: CPEB3 Ribozyme (parent)
chain: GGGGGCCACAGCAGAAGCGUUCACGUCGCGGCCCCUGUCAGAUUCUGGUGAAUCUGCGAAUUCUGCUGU

Variants of: B1
assayName: self-cleavage, relative activity (ratio to wild type); higher = more cleavage; co-transcriptional
Values of self-cleavage greater than or equal to 0.8 map to y; values below map to n.

Some solved cases for reference:
A13G C54U :: y
G47U U49C :: y
A8G A13C :: n
A10C G19C :: n
A59G :: y
G41C G50U :: n
U21C A60C :: n
U64G C66A :: n
G3U C32A :: n

Consider the additional variant presented here.
Could you verify whether the entry A40C U55G shows self-cleavage of no less than 0.8? y
